Test system: HaCaT (keratinocytes)
Assay Method Text: Anticancer assay in vitro (sulforhodamine B), HaCaT
Assay type: cell-based
Condition Set: Homo sapiens, 48 h, SRB
Experimental: The experiments were performed in triplicate.
Measurement Type: GI50

Compound	Result
COC(=O)c1cc(O)c(O)c(O)c1 [Compound 2, Methyl gallate]	0.26 µM
NNC(=O)c1cc(O)c(O)c(O)c1 [Compound 3, Galloyl hydrazide]	2.5 µM
O=C(N/N=C/c1ccc(O)cc1)c1cc(O)c(O)c(O)c1	8.72 µM
O=C(N/N=C/c1ccccc1)c1cc(O)c(O)c(O)c1 [Compound 4, N'-(Benzylidene)galloyl hydrazide]	8.29 µM
COc1ccc(/C=N/NC(=O)c2cc(O)c(O)c(O)c2)cc1	18.1 µM
COc1cccc2c1C(=O)c1c(O)c3c(c(O)c1C2=O)C[C@@](O)(C(=O)CO)C[C@@H]3O[C@H]1C[C@H](N)[C@H](O)[C@H](C)O1 [Dox, Doxorubicin, reference compound]	0.01 µM
CN(C)c1ccc(/C=N/NC(=O)c2cc(O)c(O)c(O)c2)cc1	4.05 µM
O=C(N/N=C/c1ccc([N+](=O)[O-])cc1)c1cc(O)c(O)c(O)c1 [Compound 6, N'-(4-Nitrobenzylidene)galloyl hydrazide]	31.6 µM

###

We begin with a simple list: items and their reported GI50.
Tested on: HT-29 (colon)
Assay Method Text: Anticancer assay in vitro (sulforhodamine B), HT-29
Assay type: cell-based
Condition Set: Homo sapiens; HT-29, 48 h, SRB
Experimental: The experiments were performed in triplicate.
Measurement Type: GI50 (µM)

Compound	Target System	Unit Of Measurement	Numeric Value
COC(=O)c1cc(O)c(O)c(O)c1 [Compound 2, Methyl gallate]	HT-29 (colon)	µM	0.49
CN(C)c1ccc(/C=N/NC(=O)c2cc(O)c(O)c(O)c2)cc1 [Compound 5]	HT-29 (colon)	µM	16.2
COc1cccc2c1C(=O)c1c(O)c3c(c(O)c1C2=O)C[C@@](O)(C(=O)CO)C[C@@H]3O[C@H]1C[C@H](N)[C@H](O)[C@H](C)O1 [Dox, Doxorubicin, reference compound]	HT-29 (colon)	µM	0.09
O=C(N/N=C/c1ccccc1)c1cc(O)c(O)c(O)c1 [Compound 4, N'-(Benzylidene)galloyl hydrazide]	HT-29 (colon)	µM	7.53
NNC(=O)c1cc(O)c(O)c(O)c1 [Compound 3, Galloyl hydrazide]	HT-29 (colon)	µM	1.21
COc1ccc(/C=N/NC(=O)c2cc(O)c(O)c(O)c2)cc1 [Compound 7]	HT-29 (colon)	µM	25.1

###

Tested on: K-562 (leukemia)
Assay Method Text: cells
Type: cell-based
Condition Set: Homo sapiens, K562; K-562, 48 h, SRB
Measurement Type: log10 of GI50 (log10 of the value in nM)

Molecule	log10 of GI50
COc1ccc(/C=N/NC(=O)c2cc(O)c(O)c(O)c2)cc1 [Compound 7]	3.95
COC(=O)c1cc(O)c(O)c(O)c1 [Compound 2, Methyl gallate]	2.49
CN(C)c1ccc(/C=N/NC(=O)c2cc(O)c(O)c(O)c2)cc1 [Compound 5]	3.31
NNC(=O)c1cc(O)c(O)c(O)c1 [Compound 3, Galloyl hydrazide]	3.07
O=C(N/N=C/c1ccccc1)c1cc(O)c(O)c(O)c1 [Compound 4, N'-(Benzylidene)galloyl hydrazide]	4.00
O=C(N/N=C/c1ccc(O)cc1)c1cc(O)c(O)c(O)c1 [Compound 8]	3.96
COc1cccc2c1C(=O)c1c(O)c3c(c(O)c1C2=O)C[C@@](O)(C(=O)CO)C[C@@H]3O[C@H]1C[C@H](N)[C@H](O)[C@H](C)O1 [Dox, Doxorubicin, reference compound]	1.48
